Numbers sourced from patent US20210292423A1.

# STUDY TARGET: T1, human CD123 (IL3RA) on cells (human, UniProt P26951 19-378)
# T1 construct: also called CD123 transfected HEK293; THP-1
# T1 sequence (P26951 19-378): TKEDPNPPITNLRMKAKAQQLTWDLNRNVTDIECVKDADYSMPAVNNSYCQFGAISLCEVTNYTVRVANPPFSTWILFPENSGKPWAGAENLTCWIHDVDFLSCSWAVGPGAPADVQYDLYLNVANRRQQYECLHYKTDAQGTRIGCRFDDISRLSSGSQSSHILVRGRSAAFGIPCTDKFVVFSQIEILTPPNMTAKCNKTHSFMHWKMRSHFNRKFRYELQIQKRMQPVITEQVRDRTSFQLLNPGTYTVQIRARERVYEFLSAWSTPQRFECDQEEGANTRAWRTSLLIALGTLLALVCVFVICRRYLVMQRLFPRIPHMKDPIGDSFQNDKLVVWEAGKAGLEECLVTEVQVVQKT
# TEST DESCRIPTION: flow cytometry, CD123 transfected HEK293, hybridoma supernatant
MEASURED ENDPOINT: EC50 (ng/mL)
API: value field is a number in ng/mL; no unit string.

(Q) Requested read-out: EC50. Entry: 3B10-E6 anti-CD123 rat IgG (hybridoma supernatant) (antibody, V domains shown, rat IgG; also called BFX - 3B10) VH: QVQLQQSGPELRRPGSSVRLSCKASGYRIKDFLIHWIKNRPEHGLEWIGWIDPEDGETKYAQKFQTKATLTADTSSNTAYMQLSSLTSEDTATYFCARWGDVYYGLMRGHVMDAWGQGTSVTVSS VL: DVLMTQTPVSLPVSLGGQVSISCRSSQSLVHSDGDTYLHWYLQKPGQSPQLLIYRVSNRFSGVPDRFSGSGSGTDFTLKISRVEPEDLGLYYCLQTTHFPPWTFGGGTKLEMK
(A) 2

(Q) // repeat for 9F6-G3 anti-CD123 rat IgG (hybridoma supernatant) (antibody, V domains shown, rat IgG; also called BFX - 9F6) VH: QVQLQESGPTLVKPGDSVKMSCKASGYTFTDYIIHWVKQSHGKSLEWIGYINPYSDGTNYNEKFKSKATLTVDKSTSTAYMEFSRLTSEDSAIYFCALNYGSYYAMDAWGQGTSVTVSS VL: DIQMTQSPASLSASLGETVTIECRPSEDIHSNVAWYQQKPGNSPQLLIYDASNLADGVPSRFSGSGSGTQYSLKINSLQSEDVASYFCHQYNIYPYTFGSGTKLELK and report
(A) 1.3

(Q) // repeat for 3E3-D3 anti-CD123 rat IgG (hybridoma supernatant) (antibody, V domains shown, rat IgG; also called BFX - 3E3) VH: QVQLQESGPGLVQPSQTLSLTCTVSGFSLTTYDVHWVRQPPGKGLEWMGRIQNGGITDYNSALKSRLIISRDTSKSQVFLKMNSVQTEDTAMYFCAKTGSYFYAFDHWGQGTLVTVSS VL: QFVLTQPNSVSTNLGSTVKLSCKRNTGNIGSNYVNWYQQHEGRSPTTMIYRDDKRPDGVPDRFSGSIDRSSNSALLTINNVQTEDEADYFCQSYSSGINIIFGGGTKLTVL and report
(A) 2

(Q) // repeat for 6C10-C4 anti-CD123 rat IgG (hybridoma supernatant) (antibody, V domains shown, rat IgG; also called BFX - 6C10) VH: EVKLQESGPSLVQPSETLSLTCTVSGFSLTSYSVHWVRQHSGKSLEWMGRMWNDGDTSYNSAFTSRLSISRDTSKGQVFLKMNSLQTEDTGTYYCARGHRTPFDYWGQGVMVTVSS VL: DIVMTQSPSSLAVSAGETVTINCKSSQSFLSSGDERNYVAWYQHKPGQSPKLLIYWASTRHSGVPDRFIGSGSGTDFTLTISSVQAEDLAIYYCQQYYDTPLTFGSGTKLEIK and report
(A) 6.1

(Q) // repeat for 6D6-B8 anti-CD123 rat IgG (hybridoma supernatant) (antibody, V domains shown, rat IgG; also called BFX - 6D6) VH: QVQLQESGPTLVKPGDSVKMSCKASAYTFTDNIIHWVKQSHGKSLDWIGYINPYSGGTNYNGWFRSKATLTVDKSSSTAYMEFSRLTSDDSAIYYCALNYGSYYAMDAWGQGTSVTVSS VL: DIQMTQSPASLSASLGETVTIDCRPSEDIFNNLAWYQQKPGNSPQLLIYDANSLADGVPSRFSGSGSGTQYSLMIIRLQSEDVASYFCHQYNIYPYTFGAGTKLELK and report
(A) 0.9
